Tested on: OVCAR-3 ovarian
assay-notes: NCI-60 one-dose screen, 48 h (100 = growth as untreated, 0 = no growth, -100 = all killed)
condition-info: 10 µM unless noted
About 83,000 compounds went through this panel and 20% of them were active in at least one assay; those are over-represented in the sample as a whole.
reported-metric: growth (%)
A number alone suffices; assume %.

## Input Consider the compound COc1cc(/C=C/C(=O)c2ccc(Cl)cc2)cc(CN2CCCCC2)c1O and give its recorded growth.
## Output 93.8

## Input Supply reported growth belonging to this compound: O=C(NC1C(O)OC(CO)C(O)C1O)NS(=O)(=O)c1ccc(Cl)cc1 (stereo not drawn)
## Output 112

## Input For the compound CCN1CCN(C(=S)SCC(=O)Nc2nc3ccc(C)cc3s2)CC1 , give its reported growth.
## Output 106

## Input Please give measured growth of the following entry: COc1ccc(-c2nsc3c2NC(=O)CC3c2cccc(OC)c2)cc1 (stereo not drawn)
## Output -18.6

## Input Specify reported growth for the compound shown: CCOC(=O)c1cnc2c(C)cccc2c1Nc1ccc(C(C)=O)cc1
## Output -8.93

## Input Annotate the compound Nc1nonc1-n1nncc1-c1cccnc1 with its measured growth.
## Output 116

## Input Provide measured growth value, entry: CC/C(=C(\CC)c1ccc(OCC[N+](C)(C)C)cc1)c1ccc(OC)cc1
## Output 51.3

## Input # return recorded growth for entry COc1cc(C2C(C#N)=C(N)OC3=C2C(=O)c2ccccc2C3=O)cc(OC)c1OC (stereo not drawn)
## Output 3.34

## Input Recall and state the measured growth for CCC1=C[C@@H]2CN(C1)Cc1c([nH]c3ccccc13)[C@@](C(=O)OC)(c1cc3c(cc1OC)N(C)[C@H]1[C@@](O)(C(=O)OC)[C@H](OC(C)=O)[C@]4(CC)[C@@H]5C[C@@H]5CN5CC[C@]31[C@@H]54)C2 .
## Output -25.8

## Input Entry FC(F)(F)c1cccc(Nc2nc3ccccc3nc2Nc2cccc(C(F)(F)F)c2)c1 needs its growth filled in; supply it.
## Output -29.7

## Input Fill in reported growth for this entry: Cc1ccc(F)cc1NC(=O)c1cc(Cl)ccc1Nc1ccccc1
## Output 53.4

## Input Supply growth value. Item: Cc1cccc2c(=O)c3c(sc12)c(NCCCNCCO)nc1ccccc13
## Output 64.5

## Input Give me measured growth, please, for this compound: CC1(O)COCCCCOc2c(CN)cccc2NC(=O)c2nc(cnc2N)-c2ccc(cc2)S(=O)(=O)C(C)(C)C1 (stereo not drawn)
## Output -77.2

## Input Return growth (reported value) for this compound: Cc1cc(Br)c(N)c(Br)c1
## Output 108

## Input Look up and state reported growth for NC(=O)CSc1nc(-c2ccc(F)cc2)cc(-c2ccco2)n1
## Output 111

## Input Entry COc1ccc(C2C3=C(COC3=O)N(CCO)c3cc4c(cc32)CCC4)cc1OC (stereo not drawn) needs its growth filled in; supply it.
## Output -18.6

## Input For the compound CCCCCCc1cc2cc(-c3csc(/C=C/c4ccccc4)n3)c(=O)oc2cc1O , give its reported growth.
## Output 2.25

## Input Identify measured growth associated with COc1cc(CNC(=O)c2ccsc2Nc2ccnc(C(F)(F)F)c2)ccc1O
## Output 105
